# assayInfo: NCI Yeast Anticancer Drug Screen. Data for the sgs1 mgt1 strain (AID 161)
# condition: S. cerevisiae sgs1 mgt1 strain, at 5.0 µM (retest, dose inferred, filed as 0.5)
About 79,000 compounds went through this panel and 15% of them were active in at least one assay; those are over-represented in the sample as a whole. Active and inactive are the calls of the source. No stated cut-off is given here; in the data, active means growth inhibition above about 70%; inactive means the rest.
Tick one outcome: TRUE = active, FALSE = inactive

Sample answers from the record:
In [3]: df
Out[3]:
                                   compound  assignedlabel
0  CC(=O)O[C@H]1CC[C@@]2(C)C(=CC[C@@H]3[C@@H]2CC[C@]2(C)C(=O)[C@@H](CN4CC4)C[C@@H]32)C1          FALSE
1  N#Cc1cc([N+](=O)[O-])c(Cl)c([N+](=O)[O-])c1           TRUE
2  CCCC(C)(COC(N)=O)COC(=O)NC1CC1 (configuration not stated)          FALSE
3                 O=[N+]([O-])/C=C\c1ccccc1          FALSE
4  O=C(O)CN1CCN(CC(=O)O)CC(=O)[O][Hg][O]C(=O)C1           TRUE
5  CC(=O)c1ccc([As]=O)cc1 (configuration not stated)          FALSE
6    COc1cc(OC)c(/C=C(\C)[N+](=O)[O-])cc1Br          FALSE
7  CC1CCN(C(CC(=O)c2ccccc2)C(=O)c2ccccc2)CC1 (configuration not stated)          FALSE

Query: Test call, this compound: COc1ccc(P2(=S)Oc3ccc(C(c4ccccc4)(c4ccccc4)c4ccccc4)cc3O2)cc1 (configuration not stated)
Result: FALSE

Query: Which outcome was assigned to CC(=O)[O-].O=C([CH-]C(=O)c1ccccc1)c1ccccc1.O=C([CH-]C(=O)c1ccccc1)c1ccccc1.[Dy+3] in this test?
Result: FALSE

Query: Check the results log: what was the call for CC(C)(C)S.[Hg] ?
Result: TRUE

Query: What call does the record list for [Cl][Hg][c]1ccc2ccccc2c1 ?
Result: TRUE
